Tested on: APAO enzyme
Format: biochemical, Exophiala spinifera
Details: 1 mM substrate; pH 8.0, room temperature
I'd appreciate it if you could supply RATE values for the items below.
Please report the result as a number followed by the unit.

q: # value lookup — system APAO enzyme, readout RATE, item NC[C@H](O)c1ccc(O)c(O)c1 [norepinephrine]
a: 0.0087 μM H2O2/min

q: Here is the next molecule: "CCCC[C@@H](C)[C@@H](O)[C@@H](O)C[C@@H](C)C[C@H](O)CCCC[C@@H](O)C[C@H](O)[C@H](C)N"
a: 0.8876 μM H2O2/min

q: Here is the next molecule: "CCCC[C@@H](C)[C@@H](OC(=O)C[C@@H](CC(=O)O)C(=O)O)[C@H](C[C@@H](C)C[C@H](O)CCCCCC[C@H](O)[C@H](C)N)OC(=O)C[C@@H](CC(=O)O)C(=O)O"
a: 0.1449 μM H2O2/min

q: Here is the next molecule: "CCCC[C@@H](C)[C@@H](OC(=O)C[C@@H](CC(=O)O)C(=O)O)[C@H](C[C@@H](C)C[C@H](O)CCCC[C@@H](O)C[C@H](O)[C@H](C)N)OC(=O)C[C@@H](CC(=O)O)C(=O)O"
a: 0.1429 μM H2O2/min
